# Test system: OCI-AML-2
# experimental-protocol: Proliferation assay, OCI-AML-2
# Type: cell-based
# test-conditions: Homo sapiens, OCI-AML2; OCI-AML-2, acute myeloid leukemia; after 72 hours of incubation
value-type: IC50 (nM)
Return type: number; implicit unit nM.

Query string: # get_value(readout='IC50', item= COc1cc(F)ccc1-c1ncnc(Nc2cccc(CS(C)(=N)=O)c2)n1 (single isomer, unassigned; (+)) [Compound A′] )
Result string: 323

====

# Tested on: NOMO-1
# experimental-protocol: Proliferation assay, NOMO-1
# Type: cell-based
# test-conditions: Homo sapiens; NOMO-1, acute myeloid leukemia, 11q23 positive; after 72 hours of incubation
value-type: IC50 (nM)
# number only, unit nM dropped from output

Query string: # query: IC50 | item COc1cc(F)ccc1-c1ncnc(Nc2cccc(CS(C)(=N)=O)c2)n1 (single isomer, unassigned; (+)) | system: NOMO-1
Result string: 328

The reported numbers originate from patent US20170368069A1.
